The entries below are paired with their reported logD.
experiment: physchem; settings: octan-1-ol/water, pH 7.4, LogD7.4
The response must contain the number and no unit.

Some solved entries appear below for comparison.
Data point: `O=S(=O)(Nc1ccc(S(=O)(=O)Nc2nccs2)cc1)c1ccc2c(c1)OCCO2` ; logD = 1.97

Data point: `CCC(C)(CC)C[C@H](c1ccc(C(=O)O)c(Oc2cccc(Br)c2)c1)N1CCC[C@H](n2cc(C)c(=O)[nH]c2=O)C1` ; logD = 1.97

More entries:
Data point: `O=CN1CC=C(c2c(F)cc(N3C[C@H](COc4ccon4)OC3=O)cc2F)CC1` ; logD = 2.01

----------
experiment: in vitro; details: human, hepatocytes
PROPERTY: hepatocyte CLint

Some solved entries appear below for comparison.
Data point: CCOc1ccc2nc3ccc(=O)cc-3oc2c1 [ETHOXYRESORUFIN] ; hepatocyte CLint = > 150 µL/min/1e6 cells

Data point: Cc1cc(CC(=O)O)n(C)c1C(=O)c1ccc(Cl)cc1 [ZOMEPIRAC] ; hepatocyte CLint = < 3 µL/min/1e6 cells

Data point: O=CNc1cc([C@@H](O)CNCCc2ccc(NC[C@H](O)c3ccccc3)cc2)ccc1O [MILVETEROL] ; hepatocyte CLint = < 3 µL/min/1e6 cells

Attention now turns to another entry.
Data point: CC1CNC(Nc2c(Cl)cccc2Cl)=N1 (centres undefined) ; hepatocyte CLint = < 3 µL/min/1e6 cells

----------
test: physchem; details: octan-1-ol/water, pH 7.4
The entries below are paired with their reported logD.
The response must contain the number and no unit.

Data point: `O=C1O[C@]2(CN3CCC2CC3)CN1c1ccc(Br)s1` ; logD = 2

Data point: `Clc1ccc([C@H]2CC=CCNC2)cc1Cl` ; logD = 1.95

Data point: `O=c1cc(O)oc2c1c(=O)n(Cc1ccccc1)c1ccccc21` ; logD = 1.97

Attention now turns to another entry.
Data point: `COC(=O)N1CCN(C(=O)Cc2ccc(Cl)c(Cl)c2)[C@@H](CN2CCCC2)C1` ; logD = 1.97

----------
assay: in vitro; conditions: hepatocytes
PROPERTY: hepatocyte CLint

Data point: `N#Cc1cccc(-c2cc(C(F)(F)F)ccc2OCC(=O)O)c1` ; hepatocyte CLint = < 3 µL/min/1e6 cells

Data point: `O=C(c1ccc(O)cc1O)N1CCCC1` ; hepatocyte CLint = > 150 µL/min/1e6 cells

Data point: `COc1ccc(CNC(=O)CSc2nc3cccnc3s2)cc1` ; hepatocyte CLint = > 150 µL/min/1e6 cells

More entries:
Data point: C=CCc1ccccc1OCC(O)CNC(C)C (stereo unspecified) ; hepatocyte CLint = > 150 µL/min/1e6 cells

Data point: `C[C@@](CCc1ccc(-c2ccc(Cl)cc2)cc1)(C(=O)NO)S(C)(=O)=O` ; hepatocyte CLint = < 3 µL/min/1e6 cells

Data point: `O=c1[nH]c2c(O)ccc([C@@H](O)CNCCCOCCNCCc3cccc(Cl)c3)c2s1` ; hepatocyte CLint = < 3 µL/min/1e6 cells

Data point: `CCOC(=O)c1cnc2c(N)cccc2c1O` ; hepatocyte CLint = > 150 µL/min/1e6 cells

Data point: `O=C(c1cccc(Cl)c1Cl)N1CCN(c2ccccn2)CC1` ; hepatocyte CLint = > 150 µL/min/1e6 cells

Data point: `CN(C)S(=O)(=O)NC(=O)CCCc1c(-c2ccc(F)cc2)[nH]c2ccc(C#N)cc12` ; hepatocyte CLint = < 3 µL/min/1e6 cells

Data point: Cc1c(C)c2c(c(C)c1O)CCC(C)(COc1ccc(CC3SC(=O)NC3=O)cc1)O2 (stereo unspecified) ; hepatocyte CLint = > 150 µL/min/1e6 cells

Data point: `CCc1cnn2c(NCc3ccc[n+]([O-])c3)cc(N3CCCC[C@H]3CCO)nc12` ; hepatocyte CLint = > 150 µL/min/1e6 cells

----------
assay: physchem; conditions: octan-1-ol/water, pH 7.4, LogD7.4
Mark class 0 for logD values under 3, and class 1 for everything at or above.

Q. Could you verify whether the entry `Oc1ccc(-c2nc3ccc(O)cc3o2)cc1` shows logD of no less than 3?
A. class 1

Q. Could you verify whether the entry `CC(=O)N[C@H](C)c1ccc(Nc2ncc3cc(-c4ccncc4)cc(C)c3n2)cc1` shows logD of no less than 3?
A. class 1

Q. Could you verify whether the entry Cc1ccc(-c2cc(C(F)(F)F)nn2-c2ccc(S(N)(=O)=O)cc2)cc1 [CELECOXIB] shows logD of no less than 3?
A. class 1

Q. Could you verify whether the entry `CC1CCN(C(=O)c2scc3c2OCCO3)CC1` shows logD of no less than 3?
A. class 0

Q. Could you verify whether the entry `O=C(O)c1ccccc1C(=O)N1CCC(N2CCC(Oc3ccc(Cl)c(Cl)c3)CC2)CC1` shows logD of no less than 3?
A. class 0

Q. Could you verify whether the entry `O=c1[nH]c2c(O)ccc([C@@H](O)CNCCc3cccc(CNCCc4c(Cl)cccc4Cl)c3)c2s1` shows logD of no less than 3?
A. class 1

Q. Could you verify whether the entry `CCc1cc(OCc2ccc(-c3ccccc3-c3nnn[nH]3)cc2)c2c(n1)CCCC2` shows logD of no less than 3?
A. class 0

Q. Could you verify whether the entry `COc1cc2c(Nc3cnc(NC(=O)c4ccccc4)nc3)ncnc2cc1OCCCN1CCOCC1` shows logD of no less than 3?
A. class 0

Q. Could you verify whether the entry `O=C(N[C@@H](Cc1cccc(OCCCNc2ccccn2)c1)C(=O)O)c1c(Cl)cccc1Cl` shows logD of no less than 3?
A. class 0

Q. Could you verify whether the entry `CC(=O)Nc1ccc2ccn(-c3cc(NCCN4CCCC4)n4ncc(C#N)c4n3)c2c1` shows logD of no less than 3?
A. class 0

Could you now consider this next molecule?
Q. Could you verify whether the entry `COc1cc2ncnc(NCc3ccccc3)c2cc1OC` shows logD of no less than 3?
A. class 1

----------
assay: physchem; settings: pH 7.4 buffer
Just so you know, the groups by solubility thermodynamic go like this: 1 = under 6 µM, 2 = from 6 µM up to 60 µM, 3 = 60 µM and over

Use these answered entries as a reference point.
Q. Please let me know in which category the item COc1ccc(CCN2CCC(Nc3nc4ccccc4n3Cc3ccc(F)cc3)CC2)cc1 [ASTEMIZOLE] belongs.
A. 1

Q. Please let me know in which category the item `OC[C@H]1C[C@@H](n2nnc3c(N[C@@H]4C[C@H]4c4ccccc4)nc(SCCC(F)(F)F)nc32)[C@H](O)[C@@H]1O` belongs.
A. 1

Q. Please let me know in which category the item `CNc1cccc(CCOc2ccc(C[C@H](NC(=O)c3c(Cl)cncc3Cl)C(=O)O)cc2)n1` belongs.
A. 3

Q. Please let me know in which category the item `O=C(O)c1cc2ccc(F)cc2n1Cc1ccc(Cl)c(Cl)c1` belongs.
A. 3

Q. Please let me know in which category the item `C=CC(=O)Nc1cccc(Oc2nc(Nc3ccc(N4CCN(C)CC4)cc3OC)ncc2Cl)c1` belongs.
A. 1

More entries:
Q. Please let me know in which category the item `O=C(c1ccc(F)cc1)C1CCN(C(=O)N2CCOCC2)CC1` belongs.
A. 3

Q. Please let me know in which category the item O=C(NC1CCCC1)C1CCCN(S(=O)(=O)c2cccc3cccnc23)C1 (configuration not stated) belongs.
A. 2

Q. Please let me know in which category the item `CC(C)n1c2ccc(F)cc2c2cc(NC(=O)N3CCOCC3)ccc21` belongs.
A. 2

Q. Please let me know in which category the item `CCOC(=O)Cc1csc(NC(=O)Nc2ccc(Cl)cc2)n1` belongs.
A. 1

Q. Please let me know in which category the item `O=C(c1ccc(F)cc1)C1CCN(C(=O)c2ccccc2Cl)CC1` belongs.
A. 2

Q. Please let me know in which category the item `O=C(CCc1ccncc1)Nc1ccc(C(=O)c2ccccc2)cc1` belongs.
A. 2

Q. Please let me know in which category the item `c1nc(N2CCCCC2)c2nc[nH]c2n1` belongs.
A. 3

Q. Please let me know in which category the item `COc1ccc2c(Oc3ccc(CC(=O)Nc4n[nH]c(C)c4C)c(OC)c3)ccnc2c1` belongs.
A. 2

Q. Please let me know in which category the item `Oc1cc(-c2ccc3c(c2)OCO3)nc2ccccc12` belongs.
A. 2

Q. Please let me know in which category the item `COc1ccc(S(=O)(=O)Nc2ccc(/C=C/C(=O)Nc3ccccc3N)cc2)cc1OC` belongs.
A. 2

Q. Please let me know in which category the item `Nc1ccccc1NC(=O)c1ccc(-c2ncc(CN3CCC3)cc2Cl)cc1` belongs.
A. 3

Q. Please let me know in which category the item `CCN(C(=O)NCc1c(F)cccc1F)C1CCN(CCC(c2ccccc2)c2ccccc2)CC1` belongs.
A. 2

Q. Please let me know in which category the item `CC(C)S(=O)(=O)C1(c2cc(N3CCOCC3)nc(-c3cccc4[nH]ccc34)n2)CC1` belongs.
A. 1

Q. Please let me know in which category the item O=C(Nc1ccccc1F)N[C@H]1N=C(c2ccccc2)c2ccccc2NC1=O [RSV-604] belongs.
A. 1

Q. Please let me know in which category the item `CNC(=O)N1c2ccccc2C=Cc2ccccc21` belongs.
A. 3

Q. Please let me know in which category the item `Cc1ncc(-c2nc(Nc3ccc(C(=O)N4CCN(C)CC4)cc3)ncc2F)n1C(C)C` belongs.
A. 2

Q. Please let me know in which category the item `Cc1ccc(NC(=O)C2CC2)cc1-n1cnc2ccc(N3CCN(C)CC3)cc2c1=O` belongs.
A. 3

Q. Please let me know in which category the item `CCOc1cc2nccc(Oc3cnc(CC(=O)Nc4n[nH]c(CC)c4C)c(OC)c3)c2cc1OC` belongs.
A. 1

Q. Please let me know in which category the item CC(C)CC(C(=O)NCC(=O)CNS(=O)(=O)c1ccccn1)c1cccc(-c2ccccc2)c1 (configuration not stated) belongs.
A. 1

Q. Please let me know in which category the item `CC1(C)N=C(N)N=C(N)N1c1ccc(Oc2ccc(Cl)cc2)c(Cl)c1` belongs.
A. 3
